Source listed as PubChem BioAssay (NCI).

Reported TGI values for the following molecules.
# System: T-47D breast
# Assay Text: NCI tumour cell line growth inhibition, 48 h
Entry rule: numbers only, all in µM.

Example results:
C#CC(O)/C=C/C(O)CCCC(O)CC#CC(O)C#CC(O)CCCC(O)/C=C/CCCCCC(=O)CCCCCCCCCCCCCC(O)C(O)C#CC(=O)O (centres undefined) | 35
N=c1oc2ccc(Cl)cc2cc1C(N)=O | 94.6
COC(=O)NC1C(C)OC(OC2C/C=C(/C)C3C=CC4C(OC5CC(OC6CC(OC7CC(O)C(O)C(C)O7)C(OC7CC(O)C(OC)C(C)O7)C(C)O6)C(O)C(C)O5)C(C)CC(C)C4C3(C)/C(O)=C3\C(=O)OC4(CC(C)C(CO)=CC4/C=C\2C)C3=O)CC1(C)[N+](=O)[O-] (centres undefined) | 25
CC1(C=O)CCC23COC4(CCC5C6(C)CCC(OC7OCC(OC8OC(CO)C(O)C(OC9OC(CO)C(O)C(O)C9O)C8OC8OCC(O)C(O)C8O)C(O)C7OC7OC(CO)C(O)C(O)C7O)C(C)(C)C6CCC5(C)C4(C)CC2O)C3C1 (centres undefined) | 3.36
CCc1ccc2c(c1)C(=O)c1c-2n(CCCN)c(=O)c2cc([N+](=O)[O-])ccc12 | 2.91
CC/C(=N/N=C(N)N)c1ccc(NC(=O)Nc2ccc(/C(CC)=N/N=C(N)N)cc2)cc1 | 74.1

# input Which measured TGI value corresponds to `COC(=O)[C@]12CC[C@@H](C)[C@H](C)[C@@H]1C1=CC[C@@H]3[C@@]4(C)CC(=O)[C@H](O)[C@@](C)(CO)[C@@H]4C(=O)C[C@@]3(C)[C@]1(C)CC2` ?
# output 26.4

# input Which measured TGI value corresponds to `CC(=O)Oc1ccc(/C=C/C(=O)OCCOC(=O)/C=C/c2ccc(OC(C)=O)c(OC(C)=O)c2)cc1OC(C)=O` ?
# output 43

# input Which measured TGI value corresponds to `Fc1ccc(-c2nn3c(COc4ccc(Cl)cc4Cl)nnc3s2)cc1Oc1ccccc1` ?
# output 25.7

# input Which measured TGI value corresponds to `CC1(C)OC(=O)C(=Cc2ccc([N+](=O)[O-])s2)C(=O)O1` ?
# output 38

# input Which measured TGI value corresponds to `Cc1cc(C#Cc2ccccc2)ccc1-n1c(/C=C/c2cc(O)ccc2O)nc2ccccc2c1=O` ?
# output 3.67

# input Which measured TGI value corresponds to CC(=O)OCC1OC(Oc2cc(C)c(O)cc2C/C=C(\C)CC/C=C(\C)C[C@@H](C=C(C)C)OC(C)=O)C(O)C(OC(C)=O)C1OC(C)=O (some centres undefined) ?
# output 30.7

---

# System: UACC-257 melanoma
# Assay Text: NCI tumour cell line growth inhibition, 48 h
Readout: TGI

# input Which measured TGI value corresponds to `COc1ccc2nc3c([N+](=O)[O-])ccc(NCCN(C)C)c3c(NCCN(C)C)c2c1` ?
# output > 10 µM

# input Which measured TGI value corresponds to `CC/C(=N/N=C(N)N)c1ccc(NC(=O)Nc2ccc(/C(CC)=N/N=C(N)N)cc2)cc1` ?
# output 42 µM

# input Which measured TGI value corresponds to `COc1cc(/C=C/c2cc(O)c(C/C=C(\C)CC/C=C(\C)CO)c(O)c2)cc2c1O[C@]1(C)CC[C@@H](O)C(C)(C)[C@H]1C2` ?
# output > 100 µM

# input Which measured TGI value corresponds to `COc1ccc(C(=C2C(=O)N(c3ccccc3)C(=O)C2=C(C)C)c2ccc(OC)cc2)cc1` ?
# output > 47.5 µM

---

# Test system: ACHN renal
# Assay Text: NCI tumour cell line growth inhibition, 48 h; in the data active = GI50 below about 0.43 µM; inactive = the rest
Answer with one of the outcomes true (active), false (inactive)

Answered examples (5):
N=C1C(c2nc3ccccc3s2)=C(O)CN1c1cc(Cl)cc(Cl)c1 | false
CNCCN(C)Cc1cn[nH]c1-c1ccc(OC2CC(OCCC3CCOCC3)C2)cc1 (stereo unspecified) | false
Cc1cn2c(/C=C3/C(=O)Nc4ccc(Cl)cc43)c(C)nc2s1 | true
CC/C(=N/N=C(N)N)c1ccc(NC(=O)Nc2ccc(/C(CC)=N/N=C(N)N)cc2)cc1 | false
CCCc1n(Cc2ccc3ccccc3n2)cc[n+]1Cc1ccc2ccccc2n1 | false

# input Assay result, entry `O=C(CSc1ncc(-c2ccccc2)n1-c1ccccc1)Nc1ccc(-c2nc3ccccc3s2)cc1` — outcome?
# output false

# input Assay result, entry CCN1C(=O)N(CC)C2C1NN=c1s/c(=C\c3ccc(OC)cc3)c(=O)n12 (stereo unspecified) — outcome?
# output true

# input Assay result, entry `O=C1N=C(Nc2nc(-c3csc(NC4=NC(=O)/C(=C\c5ccc(Cl)cc5)S4)n3)cs2)S/C1=C/c1ccc(Cl)cc1` — outcome?
# output false

---

# Test system: HOP-92 NSCLC
# Assay Text: NCI tumour cell line growth inhibition, 48 h
Readout: TGI (µM)
Entry rule: numbers only, all in µM.

Example results:
CS(=O)(=O)OCCN(CCOS(C)(=O)=O)c1ccc(/C=N/Nc2ncnc3nc[nH]c23)cc1 | 63.5
Cc1c(N=Nc2ccc(Cl)cc2)c(C)n(C2OC(CO)C(O)C(O)C2O)c(=S)c1C#N (stereo unspecified) | 71.4

# input Which measured TGI value corresponds to `Cc1cn2c(/C=C3/C(=O)Nc4ccc(Cl)cc43)c(C)nc2s1` ?
# output 70.1

# input Which measured TGI value corresponds to `Cc1c2cc[n+](C)cc2c(C)c2c1oc1ccccc12` ?
# output 32.7

# input Which measured TGI value corresponds to `CCCc1n(Cc2ccc3ccccc3n2)cc[n+]1Cc1ccc2ccccc2n1` ?
# output 4.18

# input Which measured TGI value corresponds to C=C1CC(C)(COc2ccc3c(C)cc(=O)oc3c2)OC1=O (stereo unspecified) ?
# output 3.25

---

# Test system: MDA-MB-435
Answer with one of the outcomes t (active), f (inactive)

Answered examples (3):
CCc1ccc2c(c1)C(=O)c1c-2n(CCCN)c(=O)c2cc([N+](=O)[O-])ccc12 | f
CCOC(=O)c1cc(-c2ccccc2)[nH]c1N/N=C/c1c(Cl)cccc1Cl | t
O=C(O)c1cn(C2CC2)c2cc(N3CCN(Cc4ccc5ccccc5c4O)CC3)c(F)cc2c1=O | f

Alright, here's another molecule for you.
# input Assay result, entry `C[C@H](c1ccccc1)N(CCC(=O)O)C(=O)CCN(C(=O)CCN(C(=O)CCN[C@H](C)c1ccccc1)[C@H](C)c1ccccc1)[C@H](C)c1ccccc1` — outcome?
# output f

---

# System: RXF 393 renal
# Assay Text: NCI tumour cell line growth inhibition, 48 h
Readout: TGI (µM)
Entry rule: numbers only, all in µM.

Example results:
O=C(c1ccco1)c1c(C(F)(F)F)n([O-])c2ccc(F)cc2[n+]1=O | 2.14
O=c1c2n[nH]nc2nc2n1CC(c1ccccc1)S2 (stereo unspecified) | 94.9

Next molecule, please.
# input Which measured TGI value corresponds to COC(=O)/C=C(\C)CC/C=C(\C)CCC(O)C(C)(C)O (stereo unspecified) ?
# output 59.9

---

# Tested on: NCI/ADR-RES ovarian
# Assay Text: NCI tumour cell line growth inhibition, 48 h
Reported TGI values for the following compounds.

Example results:
Cc1c2cc[n+](C)cc2c(C)c2c1oc1ccccc12 | > 100 µM
COC1=CC2CCN3Cc4cc5c(cc4C(C1O)C23)OCC5 (stereo not drawn) | 18.4 µM
CC1(C=O)CCC23COC4(CCC5C6(C)CCC(OC7OCC(OC8OC(CO)C(O)C(OC9OC(CO)C(O)C(O)C9O)C8OC8OCC(O)C(O)C8O)C(O)C7OC7OC(CO)C(O)C(O)C7O)C(C)(C)C6CCC5(C)C4(C)CC2O)C3C1 (stereo not drawn) | 1.05 µM
CC1OC(OCC2OC(Oc3ccc(C4CC(=O)c5c(O)cc(O)cc5O4)cc3O)C(O)C(O)C2O)C(O)C(O)C1O (stereo not drawn) | > 100 µM
COc1ccc(C(=C2C(=O)N(c3ccccc3)C(=O)C2=C(C)C)c2ccc(OC)cc2)cc1 | > 100 µM

# input Which measured TGI value corresponds to `O=C1N=C(Nc2nc(-c3csc(NC4=NC(=O)/C(=C\c5ccc(Cl)cc5)S4)n3)cs2)S/C1=C/c1ccc(Cl)cc1` ?
# output > 50 µM

# input Which measured TGI value corresponds to COC(=O)[C@@H]1COC(C(C)(C)C)N1C(=O)C(c1ccccc1)c1ccccc1 (stereo partly drawn) ?
# output > 100 µM

# input Which measured TGI value corresponds to N#CC1=C(N)OC(c2cccc([N+](=O)[O-])c2)C1(C#N)C#N (stereo not drawn) ?
# output > 100 µM

---

# Tested on: MCF7 breast
# Assay Text: NCI tumour cell line growth inhibition, 48 h
Readout: TGI (µM)
Entry rule: numbers only, all in µM.

Example results:
CCO[C@]12CCC[C@H]1[C@@H]1C(=O)c3ccccc3C(=O)C1=C(C)O2 | 35.8
COCCOC1=C(Cl)C(=O)c2c(O)ccc(O)c2C1=O | 3.04
C=C1CC(C)(COc2ccc3c(C)cc(=O)oc3c2)OC1=O (stereo not drawn) | 2.39

Next compound, please.
# input Which measured TGI value corresponds to `O=C(NCCCNCCCCNCCCNC(=O)c1cc(-c2ccccc2)nc2ccccc12)c1cc(-c2ccccc2)nc2ccccc12` ?
# output 3.78
